Where these numbers come from: ChEMBL document CHEMBL4689842

Listed here are molecules together with their documented Population Mitotic Cells (%).
test system: Fibroblast; experiment: Multiplex assay against human fibroblast; type: toxicity, cell-based; settings: 24 h, 1 µM, compound concentration 1 uM, replicate 1
reportedEndpoint: Population Mitotic Cells (%)

Cc1c(Nc2ccc(S(=O)(=O)N3CCN(C)CC3)cc2F)nc2ccc(-c3cnn(C4CC4)c3)cn2c1=O    14
CC(/C=C1\SC(=S)N(CCCC(=O)Nc2ccc(C(=O)O)c(O)c2)C1=O)=C\c1ccccc1    45
CCCc1cc(C)[nH]c(=O)c1CNC(=O)c1cc(-c2ccc(N3CCN(C(C)C)CC3)nc2)cc2c1cnn2C(C)C    68
Cc1ccc(S(=O)(=O)NC2c3ccccc3Oc3ccccc32)cc1    50
CN(c1cc(C(F)(F)F)nc(OCCC(=O)O)n1)c1cccc2c1CCC2    45
